Every entry's value here was drawn from patent US20230183193A1.

# herbicidal activity ALOMY listing for each entry below
- System: Alopecurus myosuroides
- test_details: Pre-emergence herbicidal action, ALOMY
- Format: in vivo
- measurement_parameters: dosage 320 g/ha, scored visually after 3 weeks vs untreated controls
Provide only the numeric value, understood in %.

* Cc1c(C(=O)Nc2ncnn2C)ccc(C(F)F)c1S(C)(=O)=O [Example 4-3] | 90
* CC[S+]([O-])c1c(C(F)F)ccc(C(=O)Nc2nnnn2C)c1Br (centres unmarked) [Example 1-65] | 100
* CCSc1c(C(F)F)ccc(C(=O)Nc2nnnn2CC)c1C [Example 2-4] | 100
* CCc1c(C(=O)Nc2nnc(C)o2)ccc(C(F)F)c1[S+]([O-])CC (centres unmarked) [Example 7-15] | 100

API: the following record is the query input.
Lab entry: Alopecurus myosuroides assay, compound CCSc1c(C(F)F)ccc(C(=O)Nc2ncnn2C)c1Cl [Example 4-52] , herbicidal activity ALOMY = 100
